# AUC values compiled below
- measurementDescription: AUC in mouse blood at 30 mg/kg, po
- Type: ADME, organism-based
- Set-up: dose 30 mg/kg, route oral
Number first, unit second: that is the form wanted.

q: Which AUC is reported for this compound? CCN(c1ccc(OCC(C)C)c(C(C)C)c1)c1ccc(C(=O)O)cn1
a: 18800 ng·h/mL

Now let's try a different one.
q: Please report the recorded AUC for CCN(c1ccc(C(C)C)c(OCC(C)C)c1)c1ccc(C(=O)O)cn1 .
a: 1140 ng·h/mL

###

Reported values of Retention_time for individual entries
- measurementDescription: Retention time of the compound by HPLC method
- Type: physicochemical
Report the figure in min without appending any unit label.

q: Given CCN(c1ccc(C(C)C)c(OCC(C)CF)c1)c1ccc(C(=O)O)cn1 (centres undefined) , state its recorded Retention_time.
a: 7.63

Continuing:
q: I would be grateful if you could share the reported Retention_time for CCN(c1ccc(OCC(C)CF)c(C(C)C)c1)c1ccc(C(=O)O)cn1 (centres undefined) .
a: 6.7

q: Returns the measured Retention_time for the input compound. Input: CCN(c1ccc(C(C)C)c(OCC(C)C)c1)c1ccc(C(=O)O)cn1
a: 12.7

q: Any idea what Retention_time was measured for CCN(c1ccc(OCC(C)C)c(C(C)C)c1)c1ccc(C(=O)O)cn1 ?
a: 11.7

###

- measurementDescription: Drug level in ICR mouse plasma at 30 mg/kg, po administered as single dose measured after 1 hr
- Format: ADME, organism-based
- Design: dose 30 mg/kg, route oral
valueKind: concentration at 1 h (ng/mL)
Reply numerically in ng/mL, unit not repeated.

q: Sample CCN(c1ccc(OCC(C)C)c(C(C)C)c1)c1ccc(C(=O)O)cn1 — what was its concentration at 1 h?
a: 6760

q: Give the measured concentration at 1 h of CCN(c1ccc(C(C)C)c(OCC(C)C)c1)c1ccc(C(=O)O)cn1 .
a: 1320

Next:
q: Entry under review: C=C(c1ccc(C(=O)O)cc1)c1cc2c(cc1C)C(C)(C)CCC2(C)C . Reported concentration at 1 h?
a: 4150

###

Recorded measurements of EC50, one per entry
- assayedTarget: Retinoic acid receptor RXR-alpha (Homo sapiens)
- Sequence (P19793 whole entry): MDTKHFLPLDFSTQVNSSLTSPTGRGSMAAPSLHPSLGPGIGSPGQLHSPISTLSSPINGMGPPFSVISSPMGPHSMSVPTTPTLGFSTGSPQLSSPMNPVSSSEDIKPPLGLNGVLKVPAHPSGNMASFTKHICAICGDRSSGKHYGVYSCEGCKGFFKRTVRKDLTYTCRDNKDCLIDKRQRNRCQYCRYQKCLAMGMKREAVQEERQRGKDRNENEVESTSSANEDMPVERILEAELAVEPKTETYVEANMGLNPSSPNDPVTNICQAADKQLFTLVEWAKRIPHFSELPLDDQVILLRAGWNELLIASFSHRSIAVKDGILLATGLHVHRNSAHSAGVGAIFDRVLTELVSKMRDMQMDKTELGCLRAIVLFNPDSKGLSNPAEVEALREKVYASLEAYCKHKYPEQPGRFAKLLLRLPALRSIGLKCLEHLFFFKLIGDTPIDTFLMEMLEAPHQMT
- measurementDescription: Agonist activity at RXRalpha (unknown origin) expressed in COS1 cells incubated for 18 hrs by luciferase reporter gene assay
// units = nM; emit number, no label

q: So what's the measured EC50 for this one? CCN(c1ccc(C(C)C)c(OCC(C)CF)c1)c1ccc(C(=O)O)cn1 (stereo not drawn)
a: 12

q: Which EC50 value is on record for CCN(c1ccc(OCC(C)CF)c(C(C)C)c1)c1ccc(C(=O)O)cn1 (stereo not drawn) ?
a: 450

Let us examine a further case.
q: Return reported EC50; argument: CCN(c1ccc(OCC(C)C)c(C(C)C)c1)c1ccc(C(=O)O)cn1
a: 169
